// each record: one item and its MIC for Salmonella typhosa, 1195
Where a name gives a salt, the structure may show the parent alone.
PROPERTY: MIC (µg/mL)

molecule="CC1C(NC(=O)OCc2ccccc2)C(=O)N1S(=O)(=O)O (racemic) [Example 1, potassium salt]" censoring_qualifier=> value=100
molecule="CC1C(NC(=O)C(=NO)c2csc(N)n2)C(=O)N1S(=O)(=O)O (centres unmarked) [Example 13, potassium salt]" censoring_qualifier== value=0.8
molecule="C[C@H]1[C@H](NC(=O)OCc2ccccc2)C(=O)N1S(=O)(=O)O [Example 2, potassium salt]" censoring_qualifier=> value=100
molecule="C[C@H]1[C@H](NC(=O)Cc2ccccc2)C(=O)N1S(=O)(=O)O [Example 3, potassium salt]" censoring_qualifier== value=50
molecule="C[C@H]1[C@H](NC(=O)C(=O)c2csc(N)n2)C(=O)N1S(=O)(=O)O [Example 27, potassium salt]" censoring_qualifier== value=3.1
molecule="CCN1CCN(C(=O)N[C@@H](C(=O)N[C@@H]2C(=O)N(S(=O)(=O)O)[C@@H]2C)c2ccccc2)C(=O)C1=O (relative stereo) [Example 22, potassium salt]" censoring_qualifier== value=0.4
molecule="CON=C(C(=O)NC1C(=O)N(S(=O)(=O)O)C1C)c1csc(N)n1 (centres unmarked) [Example 5, potassium salt]" censoring_qualifier=< value=0.05
molecule="CO/N=C(\\C(=O)NC1C(=O)N(S(=O)(=O)O)C1(C)C)c1csc(N)n1 (racemic) [Example 25, potassium salt]" censoring_qualifier== value=12.5
molecule="CC1C(NC(=O)C(NC(=O)N2CCN(N)C(=O)C2=O)c2ccccc2)C(=O)N1S(=O)(=O)O (centres unmarked) [Example 32, potassium salt]" censoring_qualifier== value=0.2
molecule="CC1C(NC(=O)C(=NOC(C)(C)C(=O)O)c2csc(N)n2)C(=O)N1S(=O)(=O)O (centres unmarked) [Example 6, dipotassium salt]" censoring_qualifier=< value=0.05
molecule="CC1(C)C(NC(=O)Cc2ccccc2)C(=O)N1S(=O)(=O)O (racemic) [Example 26, potassium salt]" censoring_qualifier=> value=100
molecule="COC1(NC(=O)Cc2ccccc2)C(=O)N(S(=O)(=O)O)C1C (centres unmarked) [Example 29, potassium salt]" censoring_qualifier=> value=100
molecule="C[C@@H]1[C@H](NC(=O)[C@H](NC(=O)N2CCN(N=Cc3ccco3)C2=O)c2ccccc2)C(=O)N1S(=O)(=O)O (relative stereo) [Example 21, potassium salt]" censoring_qualifier== value=0.4
molecule="CON=C(C(=O)NC1C(=O)N(S(=O)(=O)O)C1C)c1csc(N)n1 (racemic) [Example 7, potassium salt]" censoring_qualifier=< value=0.05

----------
test system: Escherichia coli, 10857
Where a name gives a salt, the structure may show the parent alone.
PROPERTY: MIC

compound="CC1C(NC(=O)C(NC(=O)N2CCN(N=Cc3ccco3)C2=O)c2ccccc2)C(=O)N1S(=O)(=O)O (stereo not drawn) [Example 11, potassium salt]" target_or_system="Escherichia coli, 10857" property=MIC value="< 0.05 µg/mL"
compound="CC1C(NC(=O)C(=NOC(C)(C)C(=O)O)c2csc(N)n2)C(=O)N1S(=O)(=O)O (stereo not drawn) [Example 6, dipotassium salt]" target_or_system="Escherichia coli, 10857" property=MIC value="< 0.05 µg/mL"
compound="CON=C(C(=O)NC1C(=O)N(S(=O)(=O)O)C1C)c1csc(N)n1 (stereo not drawn) [Example 5, potassium salt]" target_or_system="Escherichia coli, 10857" property=MIC value="< 0.05 µg/mL"
compound="CCN1CCN(C(=O)NC(C(=O)NC2C(=O)N(S(=O)(=O)O)C2C)c2ccccc2)C(=O)C1=O (stereo not drawn) [Example 12, potassium salt]" target_or_system="Escherichia coli, 10857" property=MIC value="< 0.05 µg/mL"
compound="CO/N=C(\\C(=O)NC1C(=O)N(S(=O)(=O)O)C1(C)C)c1csc(N)n1 (racemic) [Example 25, potassium salt]" target_or_system="Escherichia coli, 10857" property=MIC value="6.3 µg/mL"
compound="CC1C(NC(=O)C(NC(=O)N2CCN(N)C(=O)C2=O)c2ccccc2)C(=O)N1S(=O)(=O)O (stereo not drawn) [Example 32, potassium salt]" target_or_system="Escherichia coli, 10857" property=MIC value="0.4 µg/mL"
compound="C[C@@H]1[C@H](NC(=O)[C@H](NC(=O)N2CCN(N=Cc3ccco3)C2=O)c2ccccc2)C(=O)N1S(=O)(=O)O (relative stereo) [Example 21, potassium salt]" target_or_system="Escherichia coli, 10857" property=MIC value="< 0.05 µg/mL"
compound="C[C@H]1[C@H](NC(=O)Cc2ccccc2)C(=O)N1S(=O)(=O)O [Example 3, potassium salt]" target_or_system="Escherichia coli, 10857" property=MIC value="50 µg/mL"
compound=C[C@@H]1[C@H](NC(=O)/C(=N\OC(C)(C)C(=O)O)c2csc(N)n2)C(=O)N1S(=O)(=O)O target_or_system="Escherichia coli, 10857" property=MIC value="0.2 µg/mL"
